# credit: PubChem BioAssay (NCATS)

Recorded viability change by entry
Experiment: Nrf2 qHTS screen for inhibitors: Validation (AID 493153)
Details: A549 ARE-Fluc reporter, 18-24 h; measured here: cytotoxicity max response
Method: NIH Molecular Libraries Probe Production Network [MLPCN] NIH Chemical Genomics Center [NCGC] […] Assay Protocol Summary: A concentration-response assay was performed with A549 ARE_Fluc cells which are suspended in 5% FBS OPTI-MEM. […] The plate is then incubated at 37deg C at 5% CO2 for 30 minutes before they are read on the ViewLux (Perkin Elmer) for a fluorescent read Ex=405(10)/Em=525(10) for a 3 second exposure, 2x binning, and high gain. […]
Inconclusive results are not listed.
Dear colleague, please return just the value in %, with no unit written.

Solved entries:
{"columns": ["Compound", "Readout units", "viability change"],
 "data": [
  ["O=C1CC[C@@]2(O)C3Cc4ccc(O)c5c4C2(CCN3CC2CC2)[C@H]1O5 (stereo partly drawn)", "%", -12.7],
  ["COc1ccc2[nH]cc(CCN)c2c1", "%", 0.303],
  ["NC(=O)c1ccc(OCC(O)CN2CC=C(c3ccc(F)cc3)CC2)cc1 (stereo not drawn)", "%", 16.7],
  ["CCCCCCC(C)(C)c1ccc([C@@H]2C[C@H](O)CC[C@H]2CCCO)c(O)c1", "%", 3.03],
  ["N#CCCN", "%", -4.25]
]}

Request: Any idea what its viability change is? The compound is `NNC(N)=O`
Result: -0.697

Request: Which viability change is reported for this compound? `C[N+](C)(C)CCOC(=O)CBr`
Result: -12.9

Request: Recorded viability change of CC(C)(C)c1o[nH]c(=O)c1CC(N)C(=O)O (stereo not drawn) , please.
Result: 8

Request: What value of viability change has been recorded for this entry: `O=c1c2ccccc2[se]n1-c1ccccc1`
Result: 3.13

Request: // returns reported viability change for input `C=CCN1CC[C@]23c4c5ccc(O)c4O[C@@H]2/C(=N/N=C2\CC[C@@]4(O)C6Cc7ccc(O)c8c7[C@@]4(CCN6CC=C)[C@@H]2O8)CC[C@@]3(O)C1C5`
Result: -1.45

Request: GET /values?readout=viability change&item= `C=CCN1CCc2cccc3c2[C@H]1Cc1ccc(O)c(O)c1-3`
Result: 1.3

Request: Need viability change of `N[C@@H](Cn1ccc(=O)[nH]c1=O)C(=O)O` , thanks.
Result: 2.76

Request: // returns reported viability change for input NCC(O)c1cc(O)c(O)cc1F (stereo not drawn)
Result: -0.467

Request: Look up viability change for this compound: CN1C2CCC1CC(OC(c1ccccc1)c1ccccc1N)C2 (stereo not drawn)
Result: -4.19

Request: Fill blank: measured viability change of the compound `C[C@H](N)Cc1cccc(C(F)(F)F)c1` is ____.
Result: -8.9

Request: For the compound shown here, `CCCN(CCC)CCc1c[nH]c2ccc(C(N)=O)cc12` , give the reported viability change.
Result: 1.24

Request: Which viability change value belongs to `Clc1ccc(N2CC3CCC(C2)N3)nn1` ?
Result: 4.91

Request: If you can, please state the reported viability change value of `NCCc1c[nH]c2ccc(C(N)=O)cc12` .
Result: 4.69

----------
Known max response of a selection of molecules
Test system: NIH3T3
Assay: Cytotoxic Profiling of Annotated Libraries Using Quantitative High-Throughput Screening (AID 1296008); also: % is scaled to controls: 0 for no effect and ±100 for the full control effect
Conditions: Five cell lines viability, CellTiter-Glo ATP luminescence, 48-72 h; stronger effect = lower value
Records with an inconclusive call do not appear.
// return numeric value only (unit: %, not printed)

Consider the reported max response for these molecules:
{"columns": ["Molecule", "Target or test system", "max response, %"],
 "data": [
  ["CCCCCCn1c(=O)c(C(=O)Nc2ccc(C(=O)OCCC)cc2)c(O)c2ccccc21", "NIH3T3", 4.2],
  ["CC(C)=C1CC[C@]23CO[C@H](C2)[C@@](O)(C(=O)O)CCC13 (stereo not given in full)", "NIH3T3", 1.86],
  ["CN1C(=O)c2ccccc2NC(=O)C1Cc1ccccc1 (stereo not given)", "NIH3T3", -1.81],
  ["CN1C(=O)c2ccccc2NC(=O)[C@]12O[C@@H]2c1ccccc1", "NIH3T3", -7.39],
  ["O=C(O)c1ccnc2cc(C(OCCN3CCCCC3)c3ccccc3Cl)[nH]c12 (stereo not given)", "NIH3T3", -0.205]
]}

Request: # get_value(readout='max response', item= `C=C[C@H]1CN2CC[C@H]1C[C@@H]2[C@@H](O)c1ccnc2ccccc12` )
Result: -3.21

Request: Would you kindly share the measured max response for CC1C/C=C/C(O)C(O)CC/C=C/c2cc(O)cc(O)c2C(=O)O1 (stereo not given) ?
Result: 3.47

Request: Report max response for COC(=O)C1(C)CCC(O)C2(C)c3cc(O)c(C(C)C)cc3C(O)C(OC(C)=O)C12 (stereo not given) please.
Result: 3.45

Request: Please look up its max response: CC(=O)OC1CC(O)C2(C)C(CC(OC(C)=O)C3(C)C2CCC2(C)C(c4ccoc4)C(=O)C4OC423)C1(C)C (stereo not given)
Result: -1.6

Request: Look up max response: C/C=C(\C)C(=O)OC1CC2C(C)(C)OC(=O)CC(OC(C)=O)C2(C)C2CC(OC(=O)C(C)C)C3(C)C(c4ccoc4)CC4OC43C12C (stereo not given)
Result: 0.059
